test_target: Rob (Escherichia coli, UniProt P0ACI0)
Sequence (P0ACI0 whole entry): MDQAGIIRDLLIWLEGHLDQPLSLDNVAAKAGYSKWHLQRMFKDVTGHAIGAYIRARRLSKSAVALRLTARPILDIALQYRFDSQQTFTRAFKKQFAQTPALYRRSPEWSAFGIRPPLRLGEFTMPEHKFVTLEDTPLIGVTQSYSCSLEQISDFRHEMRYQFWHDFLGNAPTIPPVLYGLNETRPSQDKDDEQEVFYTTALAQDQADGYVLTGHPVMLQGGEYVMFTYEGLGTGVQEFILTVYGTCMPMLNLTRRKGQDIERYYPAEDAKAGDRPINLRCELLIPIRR
experiment_summary: Chemiluminescence-based Rob-DNA binding assay
Parameters: species or system E. coli
details: Table 10
readout_kind: EC50

Q: EC50 for O=[N+]([O-])c1ccc2nc(-c3ccc(-c4ccccc4)o3)n(O)c2c1 [BQ] ?
A: > 5 µM

Q: EC50 for CN(C)c1ccc(C(=O)Nc2ccc(-c3nc4ccc([N+](=O)[O-])cc4n3O)cc2)cc1 [AH] ?
A: 1 to 4.9 µM

Q: EC50 for O=C(Nc1ccc(-c2nc3ccc([N+](=O)[O-])cc3n2O)cc1)c1ccc(F)cc1 [C] ?
A: 1 to 4.9 µM

###

test_target: ExsA (Pseudomonas aeruginosa)
Construct: made in house
Sequence (P26993 1-278): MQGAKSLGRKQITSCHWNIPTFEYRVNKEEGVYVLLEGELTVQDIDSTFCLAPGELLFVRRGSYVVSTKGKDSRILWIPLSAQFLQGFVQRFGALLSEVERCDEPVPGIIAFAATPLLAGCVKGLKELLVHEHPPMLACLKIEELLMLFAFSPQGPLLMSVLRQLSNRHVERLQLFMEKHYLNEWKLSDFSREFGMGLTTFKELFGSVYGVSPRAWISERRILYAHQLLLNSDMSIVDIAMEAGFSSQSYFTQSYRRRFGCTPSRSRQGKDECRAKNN
experiment_summary: Chemiluminescence-based ExsA-DNA binding assay
Parameters: species or system P. aeruginosa
details: Table 7, cell-free system; read-out: ExsA EC50
So I've got a bunch of molecules here, and I need their EC50 values.

Q: EC50 for Cc1cc(C(=O)Nc2ccc(-c3nc4ccc([N+](=O)[O-])cc4n3O)cc2)ccc1F [DD] ?
A: 10 to 25 µM

Q: EC50 for COc1ccccc1/C=C/C(=O)Nc1ccc(-c2nc3ccc([N+](=O)[O-])cc3n2O)cc1 [U] ?
A: < 10 µM

Q: EC50 for CC(=O)c1ccc(/C=C/C(=O)N(CC(N)=O)c2ccc(-c3nc4ccc([N+](=O)[O-])cc4n3O)cc2)cc1 [GP] ?
A: > 25 µM

Q: EC50 for O=C(/C=C/c1ccc(O)cc1)Nc1ccc(-c2nc3ccc([N+](=O)[O-])cc3n2O)cc1 [AN] ?
A: 10 to 25 µM

Q: EC50 for CC(=O)c1ccc(/C=C/C(=O)Nc2ccc(-c3nc4ccc([N+](=O)[O-])cc4n3O)cc2)cn1 [GN] ?
A: < 10 µM

Q: EC50 for COc1cc(NC(=O)/C=C/c2ccc(F)cc2)ccc1-c1nc2ccc([N+](=O)[O-])cc2n1O [ET] ?
A: 10 to 25 µM

Q: EC50 for CCOP(=O)(COn1c(-c2ccc(NC(=O)/C=C/c3ccc(F)cc3)cc2)nc2ccc([N+](=O)[O-])cc21)OCC [ED] ?
A: < 10 µM

Q: EC50 for COc1ccc(C(=O)Nc2ccc(-c3nc4ccc([N+](=O)[O-])cc4n3O)cc2)cc1 [B] ?
A: > 25 µM

Q: EC50 for CN(C)c1ccc(C(=O)Nc2ccc(-c3nc4ccc([N+](=O)[O-])cc4n3O)cc2)cc1 [AH] ?
A: > 25 µM

Q: EC50 for N#Cc1ccc2nc(-c3ccc(NC(=O)/C=C/c4ccc(-n5ccnc5)nc4)cc3)n(O)c2c1 [GV] ?
A: > 25 µM

Q: EC50 for O=C(Nc1ccc(-c2nc3ccc([N+](=O)[O-])cc3n2O)nc1)c1ccc(F)cc1 [DQ] ?
A: > 25 µM

Q: EC50 for O=C(/C=C/c1ccc(F)cc1)Nc1ccc(-c2nc3ccc(-n4ccnc4)cc3n2O)cc1 [FT] ?
A: 10 to 25 µM

Q: EC50 for CC(=O)c1ccc(/C=C/C(=O)Nc2ccc(-c3nc4ccc(S(C)(=O)=O)cc4n3O)cc2)cc1 [GK] ?
A: > 25 µM

Q: EC50 for COc1cc(C(=O)Nc2ccc(-c3nc4ccc([N+](=O)[O-])cc4n3O)cc2)ccc1F [DM] ?
A: 10 to 25 µM

Q: EC50 for O=C(Nc1ccc(-c2nc3ccc([N+](=O)[O-])cc3n2O)cc1)c1ccc(-c2cncnc2)cc1 [DC] ?
A: 10 to 25 µM

Q: EC50 for N#Cc1ccc2nc(-c3ccc(NC(=O)c4ccc(F)cc4)cc3)n(O)c2c1 [CV] ?
A: 10 to 25 µM

Q: EC50 for O=C(CCc1ccc(F)cc1)Nc1ccc(-c2nc3ccc([N+](=O)[O-])cc3n2O)cc1 [L] ?
A: > 25 µM

Q: EC50 for O=C(Nc1ccc(-c2nc3ccc([N+](=O)[O-])cc3n2O)cc1)/C(=C/c1ccccc1)c1ccccc1 [CQ] ?
A: 10 to 25 µM

Q: EC50 for O=C(/C=C/c1ccccc1)Nc1ccc(-c2nc3ccc([N+](=O)O)cc3n2O)cc1 [J] ?
A: < 10 µM

Q: EC50 for O=C(Nc1ccc(-c2nc3ccc([N+](=O)[O-])cc3n2O)c(OCP(=O)(O)O)c1)c1ccc(F)cc1 [EC] ?
A: > 25 µM

Q: EC50 for O=C(Cc1ccc(F)cc1)Nc1ccc(-c2nc3ccc([N+](=O)[O-])cc3n2O)cc1 [G] ?
A: > 25 µM

Q: EC50 for CC(=O)c1ccc(/C=C/C(=O)Nc2ccc(-c3nc4ccccc4n3O)cc2)cc1 [GH] ?
A: 10 to 25 µM

Q: EC50 for CC(=O)c1ccc(/C=C/C(=O)Nc2ccc(-c3nc4ccc(Br)cc4n3O)cc2)cc1 [GD] ?
A: < 10 µM

Q: EC50 for O=C(Nc1ccc(-c2nc3ccc([N+](=O)O)cc3n2O)cc1)c1ccc(-c2cnco2)cc1 [H] ?
A: < 10 µM

Q: EC50 for CC(C)c1ccc(/C=C/C(=O)Nc2ccc(-c3nc4ccc([N+](=O)[O-])cc4n3O)cc2)cc1 [CS] ?
A: > 25 µM

Q: EC50 for CS(=O)(=O)c1ccc(/C=C/C(=O)Nc2ccc(-c3nc4ccc([N+](=O)[O-])cc4n3O)cc2)cc1 [GU] ?
A: < 10 µM

Q: EC50 for CC(=O)c1ccc(/C=C/C(=O)N(CC(=O)O)c2ccc(-c3nc4ccc(C#N)cc4n3O)cc2)cc1 [GO] ?
A: > 25 µM

Q: EC50 for O=C(Nc1ccc(-c2nc3ccc([N+](=O)[O-])cc3n2O)cc1)c1ccccc1 [A] ?
A: 10 to 25 µM

Q: EC50 for COc1ccc(/C=C/C(=O)Nc2ccc(-c3nc4ccc([N+](=O)[O-])cc4n3O)cc2)cc1 [T] ?
A: < 10 µM

Q: EC50 for CC(=O)Nc1ccc(C(=O)Nc2ccc(-c3nc4ccc([N+](=O)[O-])cc4n3O)cc2)cc1 [AC] ?
A: < 10 µM

Q: EC50 for O=C(Nc1ccc(-c2nc3ccc([N+](=O)[O-])cc3n2O)cc1)c1ccc(F)cc1 [C] ?
A: < 10 µM

Q: EC50 for CC(=O)c1ccc(C(=O)Nc2ccc(-c3nc4ccc([N+](=O)O)cc4n3O)cc2)cc1 [F] ?
A: 10 to 25 µM

Q: EC50 for COc1cc(NC(=O)c2ccc(C(C)=O)cc2)ccc1-c1nc2ccc([N+](=O)[O-])cc2n1O [ES] ?
A: 10 to 25 µM

Q: EC50 for N#Cc1ccc2nc(-c3ccc(NC(=O)c4ccc(-n5ccnc5)cc4)cc3)n(O)c2c1 [GA] ?
A: 10 to 25 µM

###

test_target: LcrF (VirF) (Yersinia pestis, UniProt P28808)
Sequence (P28808 whole entry, looked up): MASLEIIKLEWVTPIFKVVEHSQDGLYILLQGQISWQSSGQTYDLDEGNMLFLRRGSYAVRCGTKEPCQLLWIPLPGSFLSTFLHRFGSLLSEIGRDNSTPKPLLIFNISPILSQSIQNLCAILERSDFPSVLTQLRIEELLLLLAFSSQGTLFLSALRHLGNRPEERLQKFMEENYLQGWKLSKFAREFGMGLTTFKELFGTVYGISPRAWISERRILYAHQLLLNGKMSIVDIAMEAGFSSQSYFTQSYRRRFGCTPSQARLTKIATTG
experiment_summary: biochemical
Type: binding, Y. pseudotuberculosis
details: EC50 for inhibition of LcrF(VirF)-DNA binding
readout_kind: EC50

Q: // lookup EC50 | system=LcrF (VirF) (Yersinia pestis, UniProt P28808) | key= O=C(Nc1ccc(-c2nc3ccc([N+](=O)[O-])cc3n2O)cc1)c1cccc(F)c1
A: > 25 µM

Q: // lookup EC50 | system=LcrF (VirF) (Yersinia pestis, UniProt P28808) | key= O=C(/C=C/c1ccc(F)cc1)Nc1ccc(-c2nc3ccc([N+](=O)[O-])cc3n2O)cc1F
A: 10 to 25 µM

Q: // lookup EC50 | system=LcrF (VirF) (Yersinia pestis, UniProt P28808) | key= CC(=O)c1ccc(C(=O)Nc2ccc(-c3nc4ncc([N+](=O)[O-])cc4n3O)cc2)cc1
A: 10 to 25 µM

Q: // lookup EC50 | system=LcrF (VirF) (Yersinia pestis, UniProt P28808) | key= CCc1cc(-c2nc3ccc([N+](=O)[O-])cc3n2O)ccc1NC(=O)c1ccc(F)cc1
A: 10 to 25 µM

Q: // lookup EC50 | system=LcrF (VirF) (Yersinia pestis, UniProt P28808) | key= N#Cc1ccc(/C=C/C(=O)Nc2ccc(-c3nc4ccc([N+](=O)[O-])cc4n3O)cc2)cc1
A: 10 to 25 µM

Q: // lookup EC50 | system=LcrF (VirF) (Yersinia pestis, UniProt P28808) | key= O=[N+]([O-])c1ccc2nc(-c3ccc(C#Cc4ccc(F)cc4)cc3)n(O)c2c1
A: > 25 µM

Q: // lookup EC50 | system=LcrF (VirF) (Yersinia pestis, UniProt P28808) | key= Cc1ccc(/C=C/C(=O)Nc2ccc(-c3nc4ccc(C#N)cc4n3O)cc2)cc1
A: 10 to 25 µM

Q: // lookup EC50 | system=LcrF (VirF) (Yersinia pestis, UniProt P28808) | key= O=C(NCc1ccc(-c2nc3ccc([N+](=O)[O-])cc3n2O)cc1)c1ccc(F)cc1
A: > 25 µM

Q: // lookup EC50 | system=LcrF (VirF) (Yersinia pestis, UniProt P28808) | key= COc1ccc(C(=O)Nc2ccc(-c3nc4ccc([N+](=O)[O-])cc4n3O)cc2)cc1
A: 10 to 25 µM

Q: // lookup EC50 | system=LcrF (VirF) (Yersinia pestis, UniProt P28808) | key= CC(=O)c1ccc(/C=C/C(=O)Nc2ccc(-c3nc4ccc(C#N)cc4n3O)cc2)cc1
A: 10 to 25 µM

Q: // lookup EC50 | system=LcrF (VirF) (Yersinia pestis, UniProt P28808) | key= Cc1ccc(C(=O)Nc2ccc(-c3nc4ccc([N+](=O)[O-])cc4n3O)cc2)cc1
A: 10 to 25 µM

Q: // lookup EC50 | system=LcrF (VirF) (Yersinia pestis, UniProt P28808) | key= O=C(/C=C/c1ccc(F)cc1)Nc1ccc(-c2nc3ccc(-n4ccnc4)cc3n2O)cc1
A: > 25 µM

Q: // lookup EC50 | system=LcrF (VirF) (Yersinia pestis, UniProt P28808) | key= O=C(/C=C/c1ccc(F)cc1)Nc1ccc(-c2nc3cc(F)c([N+](=O)[O-])cc3n2O)cc1
A: > 25 µM

Q: // lookup EC50 | system=LcrF (VirF) (Yersinia pestis, UniProt P28808) | key= O=C(Nc1ccc(-c2nc3ccc([N+](=O)O)cc3n2O)cc1)c1ccc(-c2cnco2)cc1
A: 10 to 25 µM

Q: // lookup EC50 | system=LcrF (VirF) (Yersinia pestis, UniProt P28808) | key= N#Cc1ccc2nc(-c3ccc(NC(=O)/C=C/c4ccccc4)cc3)n(O)c2c1
A: 10 to 25 µM

Q: // lookup EC50 | system=LcrF (VirF) (Yersinia pestis, UniProt P28808) | key= N#Cc1ccc(C(=O)Nc2ccc(-c3nc4ccc([N+](=O)O)cc4n3O)cc2)cc1
A: 10 to 25 µM

Q: // lookup EC50 | system=LcrF (VirF) (Yersinia pestis, UniProt P28808) | key= O=C(Nc1ccc(-c2nc3ccc([N+](=O)[O-])cc3n2O)cc1)/C(F)=C/c1ccccc1
A: 10 to 25 µM

Q: // lookup EC50 | system=LcrF (VirF) (Yersinia pestis, UniProt P28808) | key= COc1cc(C(=O)Nc2ccc(-c3nc4ccc([N+](=O)[O-])cc4n3O)cc2)ccc1F
A: 10 to 25 µM
